Data credit: patent US20160287687A1

Reported peptide exchange yield values for the following binders.
Target: T1, HLA-A*02:01 (human)
T1 construct: MHC monomers first loaded with a UV-sensitive peptide (not identified) that is cleaved by UV light and exchanged for the test peptide; captured on streptavidin plates, detected with anti-β2m; also called peptide-receptive MHC molecules; MHC class I
Test: UV-ligand exchange + anti-b2m ELISA; peptide exchange yield grade (+ >=10%, ++ >=20%, +++ >=50, ++++ >=75%)
Description: Candidate peptides for T cell based therapies according to the present invention were further tested for their MHC binding capacity (affinity). The individual peptide-MHC complexes were produced by UV-ligand exchange, where a UV-sensitive peptide is cleaved upon UV-irradiation, and exchanged with the peptide of interest as analyzed. Only peptide candidates that can effectively bind and stabilize the peptide-receptive MHC molecules prevent dissociation of the MHC complexes. […]

{"BINDER": "KLNVAPLAV (source genes MZT2A, MZT2B) [KLNVAPLAV (SEQ ID NO: 100)]", "peptide exchange yield": "20 to 50%"}
{"BINDER": "GVMAGDIYSV (source gene PLIN2) [GVMAGDIYSV (SEQ ID NO: 93)]", "peptide exchange yield": "≥ 75%"}
{"BINDER": "IIYGGSVTGA (source genes TPI1, TPI1P1) [IIYGGSVTGA (SEQ ID NO: 65)]", "peptide exchange yield": "20 to 50%"}
{"BINDER": "YLMDEGAHL (source gene UGDH) [YLMDEGAHL (SEQ ID NO: 84)]", "peptide exchange yield": "20 to 50%"}
{"BINDER": "TLAEVRAVQEI (source gene SMYD2) [TLAEVRAVQEI (SEQ ID NO: 47)]", "peptide exchange yield": "50 to 75%"}
{"BINDER": "VLAPVILML (source gene ABCC3) [VLAPVILML (SEQ ID NO: 37)]", "peptide exchange yield": "20 to 50%"}
{"BINDER": "SLMGILLRI (source gene CARD8) [SLMGILLRI (SEQ ID NO: 61)]", "peptide exchange yield": "20 to 50%"}
{"BINDER": "KIMAQILTV (source gene LRRK2) [KIMAQILTV (SEQ ID NO: 13)]", "peptide exchange yield": "50 to 75%"}
{"BINDER": "SLKNNVVSV (source gene TGFBI) [SLKNNVVSV (SEQ ID NO: 59)]", "peptide exchange yield": "50 to 75%"}
{"BINDER": "GLSEVLVQI (source gene MICAL3) [GLSEVLVQI (SEQ ID NO: 46)]", "peptide exchange yield": "50 to 75%"}
{"BINDER": "YLALILPVL (source gene SLC16A4) [YLALILPVL (SEQ ID NO: 55)]", "peptide exchange yield": "20 to 50%"}
{"BINDER": "GLLKTLQKL (source gene CLIC4) [GLLKTLQKL (SEQ ID NO: 41)]", "peptide exchange yield": "20 to 50%"}
{"BINDER": "YVLTQPPSV (source genes IGLV3-21, IGLV2-14, IGLJ3, IGLC1, IGLC2) [YVLTQPPSV (SEQ ID NO: 68)]", "peptide exchange yield": "20 to 50%"}
{"BINDER": "ILMDFSNSM (source gene ITGB4) [ILMDFSNSM (SEQ ID NO: 56)]", "peptide exchange yield": "50 to 75%"}
{"BINDER": "YIQEHLLQI (source gene IVNS1ABP) [YIQEHLLQI (SEQ ID NO: 40)]", "peptide exchange yield": "50 to 75%"}
{"BINDER": "LLDVLAPLV (source gene COL18A1) [LLDVLAPLV (SEQ ID NO: 67)]", "peptide exchange yield": "20 to 50%"}
